Value source: ChEMBL document CHEMBL1201862

- Tested on: MOLT-4
- experiment-description: NCI tumour cell line growth inhibition, 48 h
Activity calls are given as the source filed them. Cut-off read from the data, not from the text of the source: active = GI50 up to about 1.1 µM and inactive = higher.
# valid calls are active, inactive; nothing else

A selection of reference data follows.
{"compound": "CNC(=O)C1(N)c2ccccc2C=Cc2ccccc21", "group": "inactive"}
{"compound": "CCOC(=O)CSc1nc(-c2ccccc2)c(C#N)c(=O)[nH]1", "group": "inactive"}
{"compound": "CC(NC(=O)c1ccccc1)(C(=O)O)C(=O)O", "group": "inactive"}
{"compound": "O=C1CS(=O)(=O)C(c2cccc(Oc3ccccc3)c2)N1c1cccc(Cl)c1Cl (stereo not given)", "group": "inactive"}
{"compound": "CC1CNC(c2ccc(CN3CCC(CCCC4CCN(Cc5ccc(C6=NC(C)CN6)cc5)CC4)CC3)cc2)=N1 (stereo not given)", "group": "inactive"}

Q) Per the records of this test, what outcome belongs to COC(=O)C1(C(=O)OC)Cc2ccc(C)cc2C2=C1C(=O)c1ccccc1C2=O ?
A) inactive
